- targetOrSystem: Voltage-dependent T-type calcium channel subunit alpha-1G (Homo sapiens)
- assayNotes: Inhibition of T-type calcium channel Cav3.1 with alpha-1G subunit expressed in HEK293 cells at 100 uM by FDSS6000 assay
- Type: cell-based
- conditionSummary: 100 uM
Mark false (0) for inhibition values under 20%, and true (1) for everything at or above.

Reference set, count: 3
[[record]]
molecule = "O=C(NCCCN1CCCC1)c1ccc2c(=O)n(Cc3ccc(F)cc3)c(=O)[nH]c2c1"
group = "true (1)"

[[record]]
molecule = "COc1ccc(-n2c(=O)[nH]c3cc(C(=O)NCCCN4CCCCC4C)ccc3c2=O)cc1 (stereo not given)"
group = "false (0)"

[[record]]
molecule = "O=C(NCCN1CCCCC1)c1ccc2c(=O)n(-c3ccccc3F)c(=O)[nH]c2c1"
group = "false (0)"


Ask | Say whether COc1ccc(Cn2c(=O)[nH]c3cc(C(=O)NCCN4CCCC4)ccc3c2=O)cc1 shows inhibition of 20% or more.
Reply | true (1)

Ask | Input COc1ccc(Cn2c(=O)[nH]c3cc(C(=O)NCCCN4CCOCC4)ccc3c2=O)cc1
Reply | true (1)

Ask | Input COc1cccc(Cn2c(=O)[nH]c3cc(C(=O)NCCN4CCCCC4)ccc3c2=O)c1
Reply | true (1)

Ask | Input O=C(NCCCN1CCOCC1)c1ccc2c(=O)n(C3CCCCC3)c(=O)[nH]c2c1
Reply | true (1)

Ask | Input CCC1CCCCN1CCCNC(=O)c1ccc2c(=O)n(Cc3ccc(F)cc3)c(=O)[nH]c2c1 (stereo not given)
Reply | true (1)

Ask | Input O=C(NCCN1CCOCC1)c1ccc2c(=O)n(-c3cccc(F)c3)c(=O)[nH]c2c1
Reply | false (0)

Ask | Input CCCn1c(=O)[nH]c2cc(C(=O)NCCN3CCCCC3)ccc2c1=O
Reply | false (0)

Ask | Input O=C(NCCCN1CCCC1)c1ccc2c(=O)n(Cc3cccc(F)c3)c(=O)[nH]c2c1
Reply | false (0)

====

- targetOrSystem: Voltage-dependent T-type calcium channel subunit alpha-1G (Homo sapiens)
- assayNotes: Inhibition of T-type calcium channel Cav3.1 with alpha-1G subunit expressed in HEK293 cells at 100 uM by FDSS6000 assay
- Type: cell-based
- conditionSummary: 100 uM
Active and inactive are the calls of the source. The calls are words filed in the database; no cut-off is given here.
valueKind: Activity

[[record]]
querysmiles = "CCCn1c(=O)[nH]c2cc(C(=O)NCCCN3CCN(C)CC3)ccc2c1=O"
valuekind = "Activity"
value = "inactive"

[[record]]
querysmiles = "Cn1c(=O)[nH]c2cc(C(=O)NCCN3CCCC3)ccc2c1=O"
valuekind = "Activity"
value = "inactive"

[[record]]
querysmiles = "O=C(NCCCN1CCOCC1)c1ccc2c(=O)n(Cc3ccc(F)cc3)c(=O)[nH]c2c1"
valuekind = "Activity"
value = "inactive"


====

- targetOrSystem: Voltage-dependent T-type calcium channel subunit alpha-1G (Homo sapiens, UniProt O43497)
- Sequence (O43497 whole entry): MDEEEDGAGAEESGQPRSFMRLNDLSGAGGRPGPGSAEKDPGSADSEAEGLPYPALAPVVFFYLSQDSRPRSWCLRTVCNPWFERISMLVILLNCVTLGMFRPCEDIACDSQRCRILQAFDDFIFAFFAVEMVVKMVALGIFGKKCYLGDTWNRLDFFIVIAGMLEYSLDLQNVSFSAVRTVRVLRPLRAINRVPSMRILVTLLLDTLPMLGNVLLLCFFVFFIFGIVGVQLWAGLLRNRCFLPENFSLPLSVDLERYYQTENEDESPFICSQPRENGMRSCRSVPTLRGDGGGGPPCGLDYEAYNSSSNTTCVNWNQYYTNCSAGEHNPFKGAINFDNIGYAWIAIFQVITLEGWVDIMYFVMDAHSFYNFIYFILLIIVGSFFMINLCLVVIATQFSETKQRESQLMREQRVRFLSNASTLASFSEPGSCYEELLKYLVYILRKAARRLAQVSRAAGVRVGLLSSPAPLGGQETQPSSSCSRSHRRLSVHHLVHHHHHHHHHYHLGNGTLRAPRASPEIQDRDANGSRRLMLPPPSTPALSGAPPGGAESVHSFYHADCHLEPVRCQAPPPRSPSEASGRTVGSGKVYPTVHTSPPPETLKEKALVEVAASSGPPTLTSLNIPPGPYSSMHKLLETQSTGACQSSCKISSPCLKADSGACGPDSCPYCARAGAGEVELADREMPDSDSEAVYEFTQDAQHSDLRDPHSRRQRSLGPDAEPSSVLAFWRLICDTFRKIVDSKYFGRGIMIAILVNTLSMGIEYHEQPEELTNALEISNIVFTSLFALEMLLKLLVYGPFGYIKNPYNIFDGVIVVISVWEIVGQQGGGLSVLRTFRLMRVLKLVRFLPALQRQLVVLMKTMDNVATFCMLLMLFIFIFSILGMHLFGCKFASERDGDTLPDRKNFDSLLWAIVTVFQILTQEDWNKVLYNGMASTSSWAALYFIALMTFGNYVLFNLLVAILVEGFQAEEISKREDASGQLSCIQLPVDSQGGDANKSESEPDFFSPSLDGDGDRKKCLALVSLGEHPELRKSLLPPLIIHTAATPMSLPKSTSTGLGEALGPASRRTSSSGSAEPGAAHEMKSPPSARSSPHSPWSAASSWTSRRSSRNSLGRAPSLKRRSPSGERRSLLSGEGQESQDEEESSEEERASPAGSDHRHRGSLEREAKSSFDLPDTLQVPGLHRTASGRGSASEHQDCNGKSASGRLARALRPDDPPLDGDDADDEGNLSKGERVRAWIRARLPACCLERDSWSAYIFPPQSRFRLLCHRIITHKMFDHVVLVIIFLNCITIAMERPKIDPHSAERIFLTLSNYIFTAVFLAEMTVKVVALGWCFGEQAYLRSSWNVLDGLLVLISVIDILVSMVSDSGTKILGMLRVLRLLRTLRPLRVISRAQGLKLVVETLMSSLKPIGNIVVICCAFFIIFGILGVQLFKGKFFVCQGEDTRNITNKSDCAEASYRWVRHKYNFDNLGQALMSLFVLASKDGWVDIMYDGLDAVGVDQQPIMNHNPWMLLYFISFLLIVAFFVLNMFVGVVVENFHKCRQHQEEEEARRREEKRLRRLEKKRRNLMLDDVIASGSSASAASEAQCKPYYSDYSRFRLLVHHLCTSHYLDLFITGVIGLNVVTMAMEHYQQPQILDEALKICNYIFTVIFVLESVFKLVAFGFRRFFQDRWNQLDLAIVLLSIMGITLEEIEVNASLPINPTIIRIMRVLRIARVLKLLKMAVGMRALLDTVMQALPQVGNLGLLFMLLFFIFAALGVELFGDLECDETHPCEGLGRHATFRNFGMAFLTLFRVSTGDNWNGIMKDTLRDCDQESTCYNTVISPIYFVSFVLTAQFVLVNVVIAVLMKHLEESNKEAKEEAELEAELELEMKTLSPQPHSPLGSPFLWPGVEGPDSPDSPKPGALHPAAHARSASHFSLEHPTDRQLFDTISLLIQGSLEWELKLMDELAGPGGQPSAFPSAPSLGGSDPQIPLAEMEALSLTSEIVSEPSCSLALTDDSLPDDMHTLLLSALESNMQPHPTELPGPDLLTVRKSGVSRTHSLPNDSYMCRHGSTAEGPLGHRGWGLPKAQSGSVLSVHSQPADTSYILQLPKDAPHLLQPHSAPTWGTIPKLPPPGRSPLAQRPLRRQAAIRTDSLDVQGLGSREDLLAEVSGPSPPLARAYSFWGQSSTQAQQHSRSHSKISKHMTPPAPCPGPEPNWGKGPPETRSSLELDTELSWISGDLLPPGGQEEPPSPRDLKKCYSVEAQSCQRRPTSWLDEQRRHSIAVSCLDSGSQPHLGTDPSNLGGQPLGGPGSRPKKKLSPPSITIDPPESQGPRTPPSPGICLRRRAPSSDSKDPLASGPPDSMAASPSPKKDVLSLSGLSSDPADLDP
- assayNotes: Inhibition of T-type calcium channel Cav3.1 with alpha-1G subunit expressed in HEK293 cells at 100 uM by FDSS6000 assay
- Type: cell-based
- conditionSummary: 100 uM
Mark not fulfilled for inhibition values under 10%, and fulfilled for everything at or above.

Reference set, count: 3
[[record]]
querysmiles = "COc1cccc(Cn2c(=O)[nH]c3cc(C(=O)NCCN4CCCC4)ccc3c2=O)c1"
group = "fulfilled"

[[record]]
querysmiles = "O=C(NCCN1CCCCC1)c1ccc2c(=O)n(-c3ccc(F)cc3)c(=O)[nH]c2c1"
group = "fulfilled"

[[record]]
querysmiles = "CN1CCN(CCCNC(=O)c2ccc3c(=O)n(Cc4cccc(F)c4)c(=O)[nH]c3c2)CC1"
group = "not fulfilled"


Ask | Say whether COc1ccc(-n2c(=O)[nH]c3cc(C(=O)NCCN4CCCC4)ccc3c2=O)cc1 shows inhibition of 10% or more.
Reply | fulfilled

Ask | Input CN1CCN(CCCNC(=O)c2ccc3c(=O)n(Cc4ccc(F)cc4)c(=O)[nH]c3c2)CC1
Reply | fulfilled

====

Listed here are compounds together with their documented log10 of IC50.
- targetOrSystem: Voltage-dependent T-type calcium channel subunit alpha-1G (Homo sapiens)
- assayNotes: Inhibition of T-type calcium channel Cav3.1 with alpha-1G subunit by patch clamp assay
Field: value | Transform: log10 | Quantity: IC50 | Unit: µM

[[record]]
compound = "CCC1CCCCN1CCCNC(=O)c1ccc2c(=O)n(Cc3ccc(Cl)cc3)c(=O)[nH]c2c1 (stereo not given)"
valuekind = "log10 of IC50"
value = 0.18

[[record]]
compound = "CCC1CCCCN1CCNC(=O)c1ccc2c(=O)n(Cc3ccc(OC)cc3)c(=O)[nH]c2c1 (stereo not given)"
valuekind = "log10 of IC50"
value = 0.78

[[record]]
compound = "CCC1CCCCN1CCNC(=O)c1ccc2c(=O)n(Cc3ccc(Cl)cc3)c(=O)[nH]c2c1 (stereo not given)"
valuekind = "log10 of IC50"
value = 0.53

[[record]]
compound = "O=C(NCCN1CCCC1)c1ccc2c(=O)n(Cc3ccc(Cl)cc3)c(=O)[nH]c2c1"
valuekind = "log10 of IC50"
value = 0.39

[[record]]
compound = "CC1CCCCN1CCCNC(=O)c1ccc2c(=O)n(Cc3ccc(F)cc3)c(=O)[nH]c2c1 (stereo not given)"
valuekind = "log10 of IC50"
value = 0.67

[[record]]
compound = "CC1CCCCN1CCCNC(=O)c1ccc2c(=O)n(Cc3ccc(Cl)cc3)c(=O)[nH]c2c1 (stereo not given)"
valuekind = "log10 of IC50"
value = 0.57

[[record]]
compound = "CCC1CCCCN1CCCNC(=O)c1ccc2c(=O)n(Cc3ccc(Cl)cc3)c(=S)[nH]c2c1 (stereo not given)"
valuekind = "log10 of IC50"
value = -1.00

[[record]]
compound = "CCC1CCCCN1CCCNC(=O)c1ccc2c(=O)n(Cc3ccc(F)cc3)c(=O)[nH]c2c1 (stereo not given)"
valuekind = "log10 of IC50"
value = 0.52


Ask | Item: CCC1CCCCN1CCCNC(=O)c1ccc2c(=O)n(Cc3ccccc3Cl)c(=O)[nH]c2c1 (stereo not given) Test system: Voltage-dependent T-type calcium channel subunit alpha-1G (Homo sapiens) Read-out: log10 of IC50 Value: ?
Reply | 0.45

====

Listed here are compounds together with their documented inhibition.
- targetOrSystem: Voltage-dependent T-type calcium channel subunit alpha-1G (Homo sapiens)
- assayNotes: Inhibition of T-type calcium channel Cav3.1 with alpha-1G subunit expressed in HEK293 cells at 100 uM by FDSS6000 assay
- Type: cell-based
- conditionSummary: 100 uM
I only need the number, in %, no unit after it.

Look over these answered cases.
[[record]]
compound = "CC1CCCCN1CCCNC(=O)c1ccc2c(=O)n(Cc3ccccc3F)c(=O)[nH]c2c1 (stereo not given)"
valuekind = "inhibition"
units = "%"
value = 13.9

[[record]]
compound = "O=C(NCCN1CCCC1)c1ccc2c(=O)n(C3CCCCC3)c(=O)[nH]c2c1"
valuekind = "inhibition"
units = "%"
value = 57.7

[[record]]
compound = "CN1CCN(CCCNC(=O)c2ccc3c(=O)n(C)c(=O)[nH]c3c2)CC1"
valuekind = "inhibition"
units = "%"
value = 3.4


Ask | Sample COc1ccc(Cn2c(=O)[nH]c3cc(C(=O)NCCCN4CCCCC4C)ccc3c2=O)cc1 (stereo not given) — what was its inhibition?
Reply | 42.3

Ask | Input CC1CCCCN1CCCNC(=O)c1ccc2c(=O)n(C)c(=O)[nH]c2c1 (stereo not given)
Reply | 8.5

Ask | Input O=C(NCCCN1CCOCC1)c1ccc2c(=O)n(-c3ccccc3F)c(=O)[nH]c2c1
Reply | 2.8

Ask | Input O=C(NCCN1CCCCC1)c1ccc2c(=O)n(-c3cccc(F)c3)c(=O)[nH]c2c1
Reply | 3.4

Ask | Input COc1cccc(-n2c(=O)[nH]c3cc(C(=O)NCCN4CCCC4)ccc3c2=O)c1
Reply | 13.1

Ask | Input O=C(NCCN1CCCCC1)c1ccc2c(=O)n(C3CCCCC3)c(=O)[nH]c2c1
Reply | 52.2

Ask | Input O=C(NCCCN1CCOCC1)c1ccc2c(=O)n(-c3ccc(F)cc3)c(=O)[nH]c2c1
Reply | 9.2

====

- targetOrSystem: Voltage-dependent T-type calcium channel subunit alpha-1G (Homo sapiens)
- assayNotes: Inhibition of T-type calcium channel Cav3.1 with alpha-1G subunit expressed in HEK293 cells at 100 uM by FDSS6000 assay
- Type: cell-based
- conditionSummary: 100 uM
valueKind: inhibition (%)
I only need the number, in %, no unit after it.

Look over these answered cases.
[[record]]
molecule = "CC1CCCCN1CCCNC(=O)c1ccc2c(=O)n(Cc3ccc(F)cc3)c(=O)[nH]c2c1 (stereo not given)"
value = 56.6

[[record]]
molecule = "COc1cccc(Cn2c(=O)[nH]c3cc(C(=O)NCCCN4CCCC4)ccc3c2=O)c1"
value = 13.2

[[record]]
molecule = "O=C(NCCN1CCCC1)c1ccc2c(=O)n(Cc3ccc(F)cc3)c(=O)[nH]c2c1"
value = 47.2

[[record]]
molecule = "COc1ccccc1Cn1c(=O)[nH]c2cc(C(=O)NCCCN3CCCCC3C)ccc2c1=O (stereo not given)"
value = 12.7

[[record]]
molecule = "COc1cccc(Cn2c(=O)[nH]c3cc(C(=O)NCCCN4CCCCC4C)ccc3c2=O)c1 (stereo not given)"
value = 36.9

[[record]]
molecule = "COc1cccc(Cn2c(=O)[nH]c3cc(C(=O)NCCCN4CCOCC4)ccc3c2=O)c1"
value = 28.9


Ask | Sample O=C(NCCN1CCCC1)c1ccc2c(=O)n(-c3cccc(F)c3)c(=O)[nH]c2c1 — what was its inhibition?
Reply | 4.3
